Details: in n-butanol, 313.15 K
test readout: solubility (mole fraction)
Returns: the value as a bare number; no unit string appended.

Request: Given the compound Nc1nc(=O)[nH]cc1F , write its reported solubility (mole fraction).
Response: 0.000787

---

Details: in n-propanol, 303.15 K
test readout: solubility (mole fraction)
Returns: the value as a bare number; no unit string appended.

Request: Given the compound Nc1nc(=O)[nH]cc1F , write its reported solubility (mole fraction).
Response: 0.000489

---

Details: in n-butanol, 323.15 K
test readout: solubility (mole fraction)
Returns: the value as a bare number; no unit string appended.

Request: Given the molecule Nc1nc(=O)[nH]cc1F , write its reported solubility (mole fraction).
Response: 0.00107

---

Conditions: in ethyl acetate, 298.15 K
test readout: solubility (mole fraction)
Returns: the value as a bare number; no unit string appended.

Request: Given the molecule Nc1nc(=O)[nH]cc1F , write its reported solubility (mole fraction).
Response: 8.6e-06

---

Conditions: in 2-butanone, 293.15 K
test readout: solubility (mole fraction)
Returns: the value as a bare number; no unit string appended.

Request: Given the compound Nc1nc(=O)[nH]cc1F , write its reported solubility (mole fraction).
Response: 7.74e-05

---

Details: in ethyl acetate, 308.15 K
test readout: solubility (mole fraction)
Returns: the value as a bare number; no unit string appended.

Request: Given the molecule Nc1nc(=O)[nH]cc1F , write its reported solubility (mole fraction).
Response: 1.46e-05

---

Settings: in isopropanol, 323.15 K
test readout: solubility (mole fraction)
Returns: the value as a bare number; no unit string appended.

Request: Given the compound Nc1nc(=O)[nH]cc1F , write its reported solubility (mole fraction).
Response: 0.000757

---

Conditions: in n-butanol, 298.15 K
test readout: solubility (mole fraction)

Request: Given the molecule Nc1nc(=O)[nH]cc1F , write its reported solubility (mole fraction).
Response: 0.000477

---

Conditions: in acetonitrile, 288.15 K
test readout: solubility (mole fraction)
Returns: the value as a bare number; no unit string appended.

Request: Given the compound Nc1nc(=O)[nH]cc1F , write its reported solubility (mole fraction).
Response: 9.6e-06

---

Conditions: in ethyl acetate, 283.15 K
test readout: solubility (mole fraction)
Returns: the value as a bare number; no unit string appended.

Request: Given the compound Nc1nc(=O)[nH]cc1F , write its reported solubility (mole fraction).
Response: 3.5e-06

---

Details: in n-butanol, 318.15 K
test readout: solubility (mole fraction)
Returns: the value as a bare number; no unit string appended.

Request: Given the compound Nc1nc(=O)[nH]cc1F , write its reported solubility (mole fraction).
Response: 0.000916

---

Conditions: in ethyl acetate, 303.15 K
test readout: solubility (mole fraction)
Returns: the value as a bare number; no unit string appended.

Request: Given the compound Nc1nc(=O)[nH]cc1F , write its reported solubility (mole fraction).
Response: 1.14e-05

---

Conditions: in DMF, 298.15 K
test readout: solubility (mole fraction)
Returns: the value as a bare number; no unit string appended.

Request: Given the compound Nc1nc(=O)[nH]cc1F , write its reported solubility (mole fraction).
Response: 0.00169

---

Conditions: in acetone, 288.15 K
test readout: solubility (mole fraction)

Request: Given the compound Nc1nc(=O)[nH]cc1F , write its reported solubility (mole fraction).
Response: 8.62e-05
